Target: BdIav/BdNan heterotetramer (Bactrocera dorsalis, UniProt A0A8N4L2W2+A0ABM3JT49)
Construct: ORFs co-expressed in HEK293T cells; 2:2 heterotetramer
Sequence (A0ABM3JT49 1-1159): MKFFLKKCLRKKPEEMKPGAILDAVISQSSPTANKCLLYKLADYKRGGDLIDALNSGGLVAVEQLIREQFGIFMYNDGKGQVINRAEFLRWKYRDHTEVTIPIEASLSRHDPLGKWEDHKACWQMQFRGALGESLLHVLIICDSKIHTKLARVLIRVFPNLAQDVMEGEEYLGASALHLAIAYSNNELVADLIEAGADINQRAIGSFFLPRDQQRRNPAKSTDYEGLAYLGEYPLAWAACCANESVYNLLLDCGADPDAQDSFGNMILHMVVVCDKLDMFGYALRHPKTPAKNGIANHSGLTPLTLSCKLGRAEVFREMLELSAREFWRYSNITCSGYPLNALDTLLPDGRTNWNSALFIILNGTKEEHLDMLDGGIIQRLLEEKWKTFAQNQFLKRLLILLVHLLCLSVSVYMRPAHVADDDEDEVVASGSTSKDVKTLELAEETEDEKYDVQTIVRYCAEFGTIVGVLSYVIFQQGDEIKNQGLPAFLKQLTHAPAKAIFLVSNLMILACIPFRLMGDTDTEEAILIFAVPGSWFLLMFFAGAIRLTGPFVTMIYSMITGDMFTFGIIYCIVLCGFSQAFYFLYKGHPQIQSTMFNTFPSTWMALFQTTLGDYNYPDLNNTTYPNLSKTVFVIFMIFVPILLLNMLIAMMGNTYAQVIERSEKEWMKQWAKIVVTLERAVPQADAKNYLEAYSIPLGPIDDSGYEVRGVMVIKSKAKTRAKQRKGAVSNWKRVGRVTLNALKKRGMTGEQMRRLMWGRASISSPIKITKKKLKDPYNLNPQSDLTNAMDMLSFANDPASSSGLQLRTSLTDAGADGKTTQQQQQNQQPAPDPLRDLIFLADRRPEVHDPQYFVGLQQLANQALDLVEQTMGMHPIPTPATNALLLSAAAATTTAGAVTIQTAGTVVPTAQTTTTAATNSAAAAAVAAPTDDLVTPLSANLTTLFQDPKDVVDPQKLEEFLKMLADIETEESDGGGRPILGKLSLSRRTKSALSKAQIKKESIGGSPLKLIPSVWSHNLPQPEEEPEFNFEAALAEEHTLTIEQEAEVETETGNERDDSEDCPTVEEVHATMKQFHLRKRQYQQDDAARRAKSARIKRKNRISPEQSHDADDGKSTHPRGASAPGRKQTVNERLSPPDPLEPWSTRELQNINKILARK
Sequence (A0A8N4L2W2 1-846): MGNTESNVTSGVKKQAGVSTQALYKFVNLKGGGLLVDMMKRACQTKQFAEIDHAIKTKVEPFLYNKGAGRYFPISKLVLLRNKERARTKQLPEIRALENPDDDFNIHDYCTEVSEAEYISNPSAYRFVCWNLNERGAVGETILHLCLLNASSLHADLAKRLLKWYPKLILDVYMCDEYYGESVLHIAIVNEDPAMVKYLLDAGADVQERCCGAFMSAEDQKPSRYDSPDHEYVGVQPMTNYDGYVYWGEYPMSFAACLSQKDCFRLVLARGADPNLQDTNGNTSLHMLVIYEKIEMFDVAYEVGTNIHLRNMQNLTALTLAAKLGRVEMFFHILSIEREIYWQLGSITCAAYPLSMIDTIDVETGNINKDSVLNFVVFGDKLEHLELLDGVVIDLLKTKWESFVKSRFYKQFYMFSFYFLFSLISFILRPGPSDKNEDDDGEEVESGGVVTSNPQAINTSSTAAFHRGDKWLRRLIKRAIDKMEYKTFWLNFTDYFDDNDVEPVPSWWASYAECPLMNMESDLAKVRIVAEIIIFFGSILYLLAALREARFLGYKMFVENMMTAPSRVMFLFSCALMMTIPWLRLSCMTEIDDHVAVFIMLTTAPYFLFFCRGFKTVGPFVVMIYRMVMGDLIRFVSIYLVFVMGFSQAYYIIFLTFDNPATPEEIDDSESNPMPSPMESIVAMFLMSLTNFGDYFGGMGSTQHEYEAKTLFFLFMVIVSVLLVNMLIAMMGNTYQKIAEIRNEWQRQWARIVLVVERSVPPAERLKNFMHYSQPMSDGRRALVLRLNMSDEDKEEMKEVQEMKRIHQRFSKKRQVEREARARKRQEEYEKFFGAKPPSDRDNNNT
Assay: Fluo-4 AM calcium flux in HEK293T cells
measured quantity: pEC50
Scale note: pEC50 = -log10(concentration in M).

Query string: In one line, give reported pEC50 of the entry COc1cc(CNC(=O)CCCC/C=C/C(C)C)ccc1O .
Result string: 4.61
